assay: Cytotoxicity against HUVEC cells assessed as inhibition of cell growth incubated for 48 hrs by CCK-8 assay; assay type: toxicity, cell-based; details: human
The threshold is 20 µM. Values of IC50 at 48 h beneath it are tagged Yes; values meeting or exceeding it are tagged No.

Hello, is IC50 at 48 h of the following compound strictly smaller than 20 µM? "O=C(NCc1ccc(Br)nc1)c1ccc([N+](=O)[O-])o1"
Yes

Entry to check: "O=[N+]([O-])c1ccc(COc2ccc([N+](=O)[O-])c(C(F)(F)F)c2)o1"
Yes

What do we get for "O=C(OCc1ccc([N+](=O)[O-])o1)c1ccc([N+](=O)[O-])c(Br)c1" ?
No

Now the same for O=C1CCCC(=O)C1C(=O)c1ccc(C(F)(F)F)cc1[N+](=O)[O-] [NITISINONE]
No

Same question, "O=[N+]([O-])c1ccc(COc2ccc([N+](=O)[O-])c(Br)c2)o1" this time
Yes

Then what about the compound "O=C(OCc1ccc([N+](=O)[O-])o1)c1ccc(C(F)(F)F)cc1[N+](=O)[O-]" ?
No

###

system: Salmonella enterica subsp. enterica serovar Paratyphi B; assay: Antibacterial activity against Salmonella paratyphi B ATCC CMCC50094 assessed as bacterial growth inhibition incubated for 48 hrs by broth dilution susceptibility test; assay type: functional
REPORTED METRIC: MIC50

Quick one: MIC50 of "O=[N+]([O-])c1ccc(COc2ccc([N+](=O)[O-])c(Br)c2)o1" ?
> 64 µg/mL

Request: "O=C(OCc1ccc([N+](=O)[O-])o1)c1ccc([N+](=O)[O-])c(Br)c1"
64 µg/mL

Queued: "O=C(NCc1ccc(Br)nc1)c1ccc([N+](=O)[O-])o1"
> 64 µg/mL

What do you get for "O=C(OCc1ccc([N+](=O)[O-])o1)c1ccc(C(F)(F)F)cc1[N+](=O)[O-]" ?
64 µg/mL

And the next one, "O=[N+]([O-])c1ccc(COc2ccc([N+](=O)[O-])c(C(F)(F)F)c2)o1" ?
64 µg/mL

Same for O=C1CCCC(=O)C1C(=O)c1ccc(C(F)(F)F)cc1[N+](=O)[O-] [NITISINONE]
> 64 µg/mL
